# System: DU-145 prostate
# experimental_protocol: NCI-60 one-dose screen, 48 h
# condition_label: 10 µM unless noted
About 83,000 compounds went through this panel and 20% of them were active in at least one assay; those are over-represented in the sample as a whole. Calls of active or inactive are those of the source. Rule for the calls: active = growth percent below 10; inactive = the rest.
Possible outcomes: YES = active, NO = inactive

compound: O=C(CC(SCc1ccccc1)c1ccccc1)c1ccccc1 (stereo not given)
target_entity: DU-145 prostate
class_assignment: NO
//
compound: CCN(CC)CCN1C(=O)c2c(c(C)c3c(oc4cc(O)ccc43)c2C)C1=O
target_entity: DU-145 prostate
class_assignment: YES
//
compound: COc1cc(-c2n/c(=C\c3c(O)[nH]c4ccc(Cl)cc34)cc3c2=Nc2ccccc2-3)cc(OC)c1OC
target_entity: DU-145 prostate
class_assignment: YES
//
compound: CC(=O)c1ccc(NCC(=O)Nc2ccccn2)cc1
target_entity: DU-145 prostate
class_assignment: NO
//
compound: C[n+]1cccc(CC(=O)NO)c1
target_entity: DU-145 prostate
class_assignment: NO

----------
# Tested on: RPMI-8226 leukemia
# experimental_protocol: NCI-60 one-dose screen, 48 h
# condition_label: 10 µM unless noted
The panel holds about 83,000 compounds, 20% with a hit somewhere; the sample as a whole holds those more often. Activity calls are given as the source filed them. The calls were made as follows: active = growth percent below 10; inactive = the rest.
Possible outcomes: True (active), False (inactive)

compound: CCN(CC)CCN1C(=O)c2c(c(C)c3c(oc4cc(O)ccc43)c2C)C1=O
target_entity: RPMI-8226 leukemia
class_assignment: True

compound: COc1cc(/C=N/n2c(CN3CCOCC3)nc3ccccc3c2=O)cc(OC)c1OC
target_entity: RPMI-8226 leukemia
class_assignment: False

compound: O=c1c2c3c(sc2n2c(-c4cn(-c5ccccc5)nc4-c4ccc(Cl)cc4)nnc2n1Cc1ccccc1)CCCC3
target_entity: RPMI-8226 leukemia
class_assignment: False

compound: CCCCCCCCCCCCCCCCCC1=NCCN1CCOC1=C(Cl)C(=O)c2ccccc2C1=O
target_entity: RPMI-8226 leukemia
class_assignment: False

compound: COc1ccc2oc3c(C)c4c(c(C)c3c2c1)C(=O)N(Cc1ccccc1)C4=O
target_entity: RPMI-8226 leukemia
class_assignment: False

compound: COc1ccc(/C=C/c2c(C(=O)/C=C/c3cccs3)c(C)nc3ccccc23)cc1
target_entity: RPMI-8226 leukemia
class_assignment: False

compound: COc1cccc2c1C(=O)c1c(O)c3c(c(O)c1C2=O)CC(O)(/C(C)=N/NC(=O)CCCCC(=O)N/N=C(\C)C1(O)Cc2c(O)c4c(c(O)c2C(OC2CC(N)C(O)C(C)O2)C1)C(=O)c1c(OC)cccc1C4=O)CC3OC1CC(N)C(O)C(C)O1 (stereo unspecified)
target_entity: RPMI-8226 leukemia
class_assignment: True

compound: CCN(CC)CCCNc1ccc(Nc2ccc(OC)cc2)cc1
target_entity: RPMI-8226 leukemia
class_assignment: False

compound: Nc1cc2c3c(cccc3c1)C(=O)N(CCN1CCCC1)C2=O
target_entity: RPMI-8226 leukemia
class_assignment: True

compound: COC(=O)[C@]12CC[C@@H](C)[C@H](C)[C@@H]1C1=CC[C@@H]3[C@@]4(C)C(C=O)=C[C@@](C)(COC(=O)c5ccco5)[C@@H]4C(=O)C[C@@]3(C)[C@]1(C)CC2
target_entity: RPMI-8226 leukemia
class_assignment: False

compound: C=C1C(=O)O[C@H]2[C@H]1CC/C(COC(=O)C(=O)c1c[nH]c3ccccc13)=C\CC[C@@]1(C)O[C@@H]21
target_entity: RPMI-8226 leukemia
class_assignment: True

compound: O=C1/C(=C/c2ccc(F)cc2)C=C(c2ccccc2)N1CCc1ccccc1
target_entity: RPMI-8226 leukemia
class_assignment: False

compound: C[C@H]1[C@H]2[C@H]3CC[C@@H]4[C@@]5(C)C/C(=C/c6ccco6)C(=O)C(C)(C)[C@@H]5CC[C@@]4(C)[C@]3(C)CC[C@]23CO[C@]1(C)[C@@H](C(=O)/C=C\c1ccco1)C3
target_entity: RPMI-8226 leukemia
class_assignment: False

compound: NS(=O)(=O)c1cnccc1Oc1cccc2cccnc12
target_entity: RPMI-8226 leukemia
class_assignment: False

compound: COc1cc(CCC[P+](c2ccccc2)(c2ccccc2)c2ccccc2)cc2c1OCO2
target_entity: RPMI-8226 leukemia
class_assignment: True

compound: CC/C=C\C[C@H](O)C/C=C1/C(=O)C=C[C@@H]1C/C=C\CCCC(=O)OC
target_entity: RPMI-8226 leukemia
class_assignment: True

----------
Recorded measurements of growth, one per entry
# Test system: BT-549 breast
# experimental_protocol: NCI-60 one-dose screen, 48 h (100 = growth as untreated, 0 = no growth, -100 = all killed)
# condition_label: 10 µM unless noted
This is part of a sample that, as a whole, favours compounds with a hit. Of some 83,000 tested, about 20% had one in any assay.

compound: c1c[nH]c(CNC2CCCCC2)c1
unit_string: %
growth: 105
--
compound: C[C@@]1(CCC#N)[C@H]2CC[C@@H]3[C@H]4[C@H](C(=O)/C=C/c5cccnc5)CC[C@]4(C#N)CC[C@@]3(C)[C@]2(C)CC[C@H]1C(=O)/C=C/c1cccnc1
unit_string: %
growth: 80.7
--
compound: COc1ccc2oc3c(C)c4c(c(C)c3c2c1)C(=O)N(Cc1ccccc1)C4=O
unit_string: %
growth: 96.1
--
compound: Cc1ccc(Cl)c(NS(=O)(=O)c2ccc(-c3cnc(C4CC4)o3)cc2)c1
unit_string: %
growth: 34.5
--
compound: Cc1cc(NCc2cc(Nc3ccnc4cc(Cl)ccc34)ccc2F)nc(N2CCN(C)CC2)n1
unit_string: %
growth: 28.2
--
compound: CC(=O)[C@@H]1CC[C@]2(COS(=O)(=O)c3ccc(C)cc3)CC[C@]3(C)[C@H](CC[C@@H]4[C@@]5(C)CCCNC(C)(C)[C@@H]5CC[C@]43C)[C@@H]12
unit_string: %
growth: 82.6
--
compound: Cc1ccc(-c2cc(-c3ccccc3C)[nH]c(=O)c2C#N)s1
unit_string: %
growth: 79.4
--
compound: O=Cc1c[nH]c2ccc(-c3csc4ccccc34)cc12
unit_string: %
growth: 38.5
--
compound: CN(c1ccccc1)c1ccc2c(c1)OCCC21CC1Nc1cnccc1C(=O)O (stereo unspecified)
unit_string: %
growth: 64.8
--
compound: C=C(C)[C@@H]1CC[C@]2(C(=O)NC3CCCCC3)CC[C@]3(C)[C@H](CC[C@@H]4[C@@]5(C)CCCNC(C)(C)[C@@H]5CC[C@]43C)[C@@H]12
unit_string: %
growth: 85.4
--
compound: CCOC(=O)C/C(C)=N\NC(=O)c1ccncc1
unit_string: %
growth: 97.8

----------
Recorded measurements of growth, one per entry
# Test system: SK-MEL-2 melanoma
# experimental_protocol: NCI-60 one-dose screen, 48 h (100 = growth as untreated, 0 = no growth, -100 = all killed)
# condition_label: 10 µM unless noted
About 83,000 compounds went through this panel and 20% of them were active in at least one assay; those are over-represented in the sample as a whole.
measured_property: growth (%)

compound: CCCCN(CCCC)CC(C)(C)C(O)c1ccc(OC)c2ccccc12 (centres undefined)
measured_property: growth
unit_string: %
data_value: 76.7

compound: Cc1ccc(C(=O)CSc2nc(-c3ccc(Br)cc3)c(C#N)c(=O)[nH]2)cc1
measured_property: growth
unit_string: %
data_value: 106

compound: CCC(CO)Nc1nc2ccc(Cl)cc2c2ccccc12 (centres undefined)
measured_property: growth
unit_string: %
data_value: 84.1

compound: Cc1ccc(S(=O)(=O)NCC[C@@H]2C[C@H]2c2cc3ccccc3s2)cc1
measured_property: growth
unit_string: %
data_value: 111

----------
# System: NCI-H226 lung
# experimental_protocol: NCI-60 one-dose screen, 48 h
# condition_label: 10 µM unless noted
Compounds without any hit were thinned out: in the full panel of roughly 83,000, 20% have a hit. Activity calls are given as the source filed them. Rule for the calls: active = growth percent below 10; inactive = the rest.
Possible outcomes: 1.0 (active), 0.0 (inactive)

molecule: Cc1ccc(C(=O)C2=C(O)C(=O)N(Cc3cccnc3)C2c2ccccc2F)o1 (stereo not given)
target_entity: NCI-H226 lung
class_assignment: 0.0

molecule: Cc1cc(NCc2cc(Nc3ccnc4cc(Cl)ccc34)ccc2F)nc(N2CCN(C)CC2)n1
target_entity: NCI-H226 lung
class_assignment: 0.0

molecule: Cn1c2c(c3ccc(Cl)c(Cl)c31)C(C#N)C1(CCNCC1)NC2=O (stereo not given)
target_entity: NCI-H226 lung
class_assignment: 0.0

molecule: COc1ccc(N2CCN(c3nc(-c4cc(OC)c(OC)c(OC)c4)nc4ccccc34)CC2)cc1
target_entity: NCI-H226 lung
class_assignment: 0.0

molecule: Cc1cc(N2CCCC2)nc(NCc2cc(Nc3ccnc4cc(Cl)ccc34)ccc2F)n1
target_entity: NCI-H226 lung
class_assignment: 0.0

molecule: COc1cccc(/C=C/C(=O)c2c(C)nc3ccccc3c2/C=C/c2ccc(C)cc2)c1OC
target_entity: NCI-H226 lung
class_assignment: 0.0

molecule: CCOc1ccccc1-n1c(CN2CCN(C(=O)COc3ccc(CNCCCCCCN4C5CCCC4CC(OC(=O)Nc4cc(C)ccc4OC)C5)cc3)CC2)nc2ccccc2c1=O (stereo not given)
target_entity: NCI-H226 lung
class_assignment: 1.0

molecule: C=CCn1c(C)nc2cc(Nc3nc(N4CCCC4)nc4ccccc34)ccc21
target_entity: NCI-H226 lung
class_assignment: 0.0

molecule: CCN1CCN(c2nc(C)cc(NCc3cc(Nc4ccnc5cc(Cl)ccc45)ccc3F)n2)CC1
target_entity: NCI-H226 lung
class_assignment: 0.0

molecule: Cc1ccc(Cl)cc1NC(=O)c1cc2ccccc2cc1O
target_entity: NCI-H226 lung
class_assignment: 1.0

molecule: Cc1ccc(C(=O)COc2cccc(/C=C3\Oc4ccccc4C3=O)c2)cc1
target_entity: NCI-H226 lung
class_assignment: 0.0

molecule: OC(COc1ccccc1Cl)COc1ccccc1Cl
target_entity: NCI-H226 lung
class_assignment: 0.0

molecule: C=C(C)[C@@H]1CC[C@]2(C(=O)NC3CCCCC3)CC[C@]3(C)[C@H](CC[C@@H]4[C@@]5(C)CCCNC(C)(C)[C@@H]5CC[C@]43C)[C@@H]12
target_entity: NCI-H226 lung
class_assignment: 0.0

molecule: NCCCNc1nc2ccccc2c2c(=O)c3cccc(Cl)c3sc12
target_entity: NCI-H226 lung
class_assignment: 0.0

molecule: COc1cc(Cn2ncc3ccc(NC(=O)c4cc5ccccc5oc4=N)cc32)cc(OC)c1OC
target_entity: NCI-H226 lung
class_assignment: 0.0

molecule: NNC(=O)c1nc(N)n(-c2ccc(S(N)(=O)=O)cc2)n1
target_entity: NCI-H226 lung
class_assignment: 0.0

molecule: O=[N+]([O-])c1ccc(OCCO)cc1
target_entity: NCI-H226 lung
class_assignment: 0.0

molecule: c1ccc2c(c1)nc(CN1CCOCC1)n1cc(N3CCCC3)nc21
target_entity: NCI-H226 lung
class_assignment: 0.0

molecule: COc1nc(N(C)O)nc(N(C)O)n1
target_entity: NCI-H226 lung
class_assignment: 0.0

molecule: CC1(C)CC(=O)CC2(C1)N=C(N)Nc1nc3ccccc3n12 (stereo not given)
target_entity: NCI-H226 lung
class_assignment: 0.0

molecule: COc1cc(-c2n/c(=C\c3c(O)[nH]c4ccc(Cl)cc34)cc3c2=Nc2ccccc2-3)cc(OC)c1OC
target_entity: NCI-H226 lung
class_assignment: 0.0

molecule: O=C(Nc1cccc(Oc2nnc(Cl)c3ccccc23)c1)Nc1ccc(Cl)c(C(F)(F)F)c1
target_entity: NCI-H226 lung
class_assignment: 1.0

molecule: COc1ccc(NC(=O)CSc2nnc(-c3cc(-c4ccccc4)nc4ccccc34)n2-c2ccccc2)cc1
target_entity: NCI-H226 lung
class_assignment: 0.0

molecule: Cc1cc(=O)oc2c1ccc1oc(C#N)c(C)c12
target_entity: NCI-H226 lung
class_assignment: 0.0

molecule: COC(=O)c1c2c(c[n+]([O-])c1C)C(=O)C=CC2=O
target_entity: NCI-H226 lung
class_assignment: 0.0
